- System: DLD-1
- ASSAY_NOTES: NCI tumour cell line growth inhibition, 48 h
Activity calls are given as the source filed them. No stated cut-off is given here; in the data, active = GI50 up to about 1.1 µM and inactive = higher.
Please respond with reported GI50 for every item in the list.

Give one value of GI50 per listed compound.
1. O=C(/C=C/c1cccc2ccccc12)c1ccccc1Cl
2. O=C1CSc2ccncc2N1
3. CCOC(=O)C1=C(C(=O)OCC)C2(c3ccccc3)N(O1)c1ccccc1C2(C)C (configuration not stated)
4. c1ccc(SC2CCSc3ccccc3C2Sc2ccccc2)cc1 (configuration not stated)
5. COc1ccc2c(c1)C(O)(C(F)(F)F)c1cc(C(=O)C(F)(F)F)c3ccccc3c1N2 (configuration not stated)

Ans:
7.89 µM (inactive)
> 100 µM (inactive)
50 µM (inactive)
> 100 µM (inactive)
10.2 µM (inactive)

Give one value of GI50 per listed compound.
1. C/C=C(/CCCCNCCCC)[Si](C)(C)C
2. CC(/C=C/C(=O)c1sc(C(N)=S)nc1C)=C\c1ccccc1

Ans:
1: 14.6 µM (inactive); 2: 21 µM (inactive)

* * *

Please respond with reported GI50 for every item in the list.
- System: HCT-15

[[record]]
molecule = "COC(=O)C(Cc1ccccc1)NP(=O)(O)OCC1OC(n2cc(I)c(=O)[nH]c2=O)CC1O (stereo not drawn)"
parameter = "GI50"
result = "> 100 µM"

[[record]]
molecule = "COC(=O)/C(C#N)=C1\\NN=NN1c1ccc(OC)cc1"
parameter = "GI50"
result = "> 100 µM"


Q: Reported GI50, molecule O=C(O)Cc1cccc2c1Oc1ccccc1S2 : ____
Ans: > 100 µM

* * *

- Tested on: HCT-15
- ASSAY_NOTES: NCI tumour cell line growth inhibition, 48 h
Please respond with reported GI50 for every item in the list.

Example cases with answers are listed next.
[[record]]
compound = "Cc1ccc(S(=O)(=O)NCc2cccc([N+](=O)[O-])c2)cc1"
result = "> 100 µM"

[[record]]
compound = "CC[C@H]1C=CCC[C@@]2(C[C@@H]3CC[C@H]4[C@@H](C(=O)OCCCCCCCCCCCCCCCC(=O)N(CCCN)C[C@@H](O)CCN)[C@@]5(CCC[C@@H](C)O5)NC(=[N+]34)N2)O1"
result = "> 10 µM"

[[record]]
compound = "CC(NS(C)(=O)=O)c1ccccc1 (stereo unspecified)"
result = "> 100 µM"


Give one value of GI50 per listed compound.
1. Cc1ccc(NC(=O)CC(=O)n2nc(-c3ccccc3)c(/N=N/c3ccccc3Cl)c2-c2ccccc2)cc1
2. CC(C)=NNC(=S)NC12CC3CC(CC(C3)C1)C2
3. CC(=O)C(C(=O)C(C)(C)C)C(=O)C(C)(C)C
4. COc1ccc(CCNC(=O)[C@H]2CCCC[C@@H]2CCO)cc1OC
5. CN1c2ccccc2N(C(=O)c2ccccc2)C(CC(=O)O)c2cccn21 (stereo unspecified)

Ans:
1: > 10 µM; 2: > 100 µM; 3: > 100 µM; 4: > 100 µM; 5: > 100 µM

Give one value of GI50 per listed compound.
1. Cc1nc2c(=O)[nH]ncc2[nH]1
2. COc1cc(OCc2ccc3nc(OC)c(OC)nc3c2)cc(OC)c1OC
3. COc1cc(C(=O)O[C@@H]2[C@@H](OC(=O)c3cc(OC)c(OC)c(OC)c3)[C@@H](OC)O[C@@H]3CO[C@@H](c4ccccc4)O[C@@H]23)cc(OC)c1OC
4. COc1cc2c(cc1OC)C(=O)N(c1ccc(OCCN3CCCC3)cc1)C2
5. COc1nc(NC2OC(COC(C)=O)C(OC(C)=O)C(OC(C)=O)C2OC(C)=O)c2c(OC(C)=O)c(C)c(=O)oc2n1 (stereo unspecified)
6. Nc1nc(NCCO)c(N=O)c(=O)[nH]1
7. O=C1NC(=O)[C@@H](OCC2CCCCC2)[C@@H]2OCC3OC(C(O)C3O)C12 (stereo partly specified)
8. Cn1c(-c2ccc(/N=N/Nc3ccc(-c4n[nH]c(=S)n4C)cc3)cc2)n[nH]c1=S

Ans:
> 100 µM
> 10 µM
> 100 µM
> 100 µM
> 100 µM
> 100 µM
> 100 µM
> 100 µM

Give one value of GI50 per listed compound.
1. CC(C)(C)C[P+](C)(C)c1ccccc1
2. COc1cc(CNc2nc3ccccc3nc2C(=O)O)cc(OC)c1OC

Ans:
1. > 100 µM
2. > 100 µM

* * *

- System: UACC-62
- ASSAY_NOTES: NCI tumour cell line growth inhibition, 48 h
Calls of active or inactive are those of the source. Rule as the data show it: active = GI50 up to about 1.1 µM and inactive = higher.
PARAMETER: GI50

Give one value of GI50 per listed molecule.
1. Nc1nc2c(N)cc(C(F)(F)F)cc2nc1-c1ccccc1
2. Cc1cc2[nH]c(=NS(=O)(=O)c3cc(C)c(Cl)cc3S)[nH]c2cc1C
3. CCN(CC)CCCC(C)NC(=O)c1cc(-c2nccn2C)nc2ccc(C)cc12 (stereo not drawn)
4. O=C(Nc1ccccc1[N+](=O)[O-])/C(=N/Nc1cccc(Cl)c1)c1c(O)c2ccccc2oc1=O
5. CCC1(CC)C(=O)NN(C(=O)c2ccccc2)C1=O
6. C=C(C)CCN[Si](c1ccccc1)(c1ccccc1)C(C)(C)C

Ans:
["> 100 µM (inactive)", "> 100 µM (inactive)", "> 100 µM (inactive)", "42.2 µM (inactive)", "> 100 µM (inactive)", "17 µM (inactive)"]

* * *

- System: EKVX
- ASSAY_NOTES: NCI tumour cell line growth inhibition, 48 h
The source made the active and inactive calls. Rule as the data show it: active = GI50 up to about 1.1 µM and inactive = higher.
Please respond with reported GI50 for every item in the list.

[[record]]
molecule = "COP(=O)(OC)/C(=C/c1cn(C(c2ccccc2)(c2ccccc2)c2ccccc2)cn1)NC=O"
parameter = "GI50"
result = "22 µM (inactive)"

[[record]]
molecule = "CCc1cccc(C(C)C)c1NC(=O)C(=O)C1C(=O)NC(=O)NC1=O"
parameter = "GI50"
result = "> 100 µM (inactive)"

[[record]]
molecule = "O=C1C=CC2=[N+]([O-])C(c3ccccc3)(c3ccccc3)/C(=N\\c3ccccc3)C2=C1"
parameter = "GI50"
result = "4.14 µM (inactive)"


Here is another compound to look at.
Q: Reported GI50, compound NC1=Nc2ccccc2Sc2cccc(F)c21 : ____
Ans: 50.9 µM (inactive)

* * *

- System: A498
- ASSAY_NOTES: NCI tumour cell line growth inhibition, 48 h
Active and inactive are the calls of the source. Cut-off read from the data, not from the text of the source: active = GI50 up to about 1.1 µM and inactive = higher. Where a SMILES comes first, the peptide text is derived from it. [ ]: non-standard residue; d: D form. pGlu = O=C1CC[CH](C(=O)O)N1
Please state which outcome applies, choosing from active, inactive

Solved entries (count: 5):
[[record]]
compound = "CC1CC(=O)C(C(O)CC2CC(=O)N(c3ccccc3)C(=O)C2)C(C)C1 (stereo not drawn)"
category = "inactive"

[[record]]
compound = "CC(NC(=O)C1CCC(=O)N1)C(=O)N1CCCC1C(N)=O (stereo not drawn) ([pGlu]-Ala-Pro-NH2; configuration not given here)"
category = "inactive"

[[record]]
compound = "CCN(CC)CC(=O)Nc1ccc2c(c1)C(=O)c1ccc(NC(=O)CN(CC)CC)cc1C2=O"
category = "inactive"

[[record]]
compound = "O=[N+]([O-])c1ccc(C2Nn3c(nnc3-c3cccc([N+](=O)[O-])c3)S2)cc1 (stereo not drawn)"
category = "inactive"

[[record]]
compound = "CC(=O)CC(OC(C)=O)C1=CCC2C(CC1C)OC(=O)C2C (stereo not drawn)"
category = "inactive"


Q: Look up the recorded call for CCCC(=O)Nc1cc(C(=O)N2C[C@@H]3C[C@]34C2=CC(=O)c2[nH]cc(C)c24)n(COC)c1 in this test.
Ans: inactive

Q: Look up the recorded call for CCOC(OC1=C(C#N)CCCC1)C(CC)[Se]c1ccccc1 (stereo not drawn) in this test.
Ans: inactive

Q: Look up the recorded call for Cc1ccc(S(=O)(=O)NCc2cccc([N+](=O)[O-])c2)cc1 in this test.
Ans: inactive

Q: Look up the recorded call for CCN(CC)C(=S)/N=C(\SC(=S)N(CC)CC)c1ccccc1 in this test.
Ans: inactive

* * *

- System: Malme-3M
- ASSAY_NOTES: NCI tumour cell line growth inhibition, 48 h
The source made the active and inactive calls. Cut-off read from the data, not from the text of the source: active = GI50 up to about 1.1 µM and inactive = higher.
Please state which outcome applies, choosing from active, inactive

Q: Look up the recorded call for CNCCCNC1(c2cc3ccccc3s2)CCCCC1 in this test.
Ans: inactive

Q: Look up the recorded call for O=C1Cc2c([nH]c3ccc(C(=O)O)cc23)-c2ccccc2N1 in this test.
Ans: inactive

Q: Look up the recorded call for CC(OC(C)(C)C)[C@H](NC(=O)OCC(Cl)(Cl)Cl)C(=O)O (some centres undefined) in this test.
Ans: inactive

Q: Look up the recorded call for O=C(O)c1ccc([C@@H]2C(=O)N(O)[C@@H]3C=CC[C@@H]32)cc1 in this test.
Ans: inactive

Q: Look up the recorded call for COc1cccc2c1C(=O)c1c(O)c3c(c(O)c1C2=O)C[C@@](O)(C(C)=O)CC3OC1CC(OC2CC(N)C(O)C(C)O2)C(O)C(C)O1 (some centres undefined) in this test.
Ans: inactive

Q: Look up the recorded call for C[C@]12CCC(=O)C(O)=C1CC[C@@H]1[C@@H]2CC[C@]2(C)C(=O)CC[C@@H]12 [FORMESTANE] in this test.
Ans: inactive

Q: Look up the recorded call for CCCSc1ccc2[nH]c(/N=C/c3ccccc3)cc2c1 in this test.
Ans: inactive

Q: Look up the recorded call for O=[N+]([O-])C(C(Cl)=C(Cl)Cl)=C(n1cncn1)n1cncn1 in this test.
Ans: inactive
